cAMP phosphodiesterase (human platelets) (Homo sapiens, UniProt Q14432) measurements of IC50, listed per entry.
Sequence (Q14432 whole entry): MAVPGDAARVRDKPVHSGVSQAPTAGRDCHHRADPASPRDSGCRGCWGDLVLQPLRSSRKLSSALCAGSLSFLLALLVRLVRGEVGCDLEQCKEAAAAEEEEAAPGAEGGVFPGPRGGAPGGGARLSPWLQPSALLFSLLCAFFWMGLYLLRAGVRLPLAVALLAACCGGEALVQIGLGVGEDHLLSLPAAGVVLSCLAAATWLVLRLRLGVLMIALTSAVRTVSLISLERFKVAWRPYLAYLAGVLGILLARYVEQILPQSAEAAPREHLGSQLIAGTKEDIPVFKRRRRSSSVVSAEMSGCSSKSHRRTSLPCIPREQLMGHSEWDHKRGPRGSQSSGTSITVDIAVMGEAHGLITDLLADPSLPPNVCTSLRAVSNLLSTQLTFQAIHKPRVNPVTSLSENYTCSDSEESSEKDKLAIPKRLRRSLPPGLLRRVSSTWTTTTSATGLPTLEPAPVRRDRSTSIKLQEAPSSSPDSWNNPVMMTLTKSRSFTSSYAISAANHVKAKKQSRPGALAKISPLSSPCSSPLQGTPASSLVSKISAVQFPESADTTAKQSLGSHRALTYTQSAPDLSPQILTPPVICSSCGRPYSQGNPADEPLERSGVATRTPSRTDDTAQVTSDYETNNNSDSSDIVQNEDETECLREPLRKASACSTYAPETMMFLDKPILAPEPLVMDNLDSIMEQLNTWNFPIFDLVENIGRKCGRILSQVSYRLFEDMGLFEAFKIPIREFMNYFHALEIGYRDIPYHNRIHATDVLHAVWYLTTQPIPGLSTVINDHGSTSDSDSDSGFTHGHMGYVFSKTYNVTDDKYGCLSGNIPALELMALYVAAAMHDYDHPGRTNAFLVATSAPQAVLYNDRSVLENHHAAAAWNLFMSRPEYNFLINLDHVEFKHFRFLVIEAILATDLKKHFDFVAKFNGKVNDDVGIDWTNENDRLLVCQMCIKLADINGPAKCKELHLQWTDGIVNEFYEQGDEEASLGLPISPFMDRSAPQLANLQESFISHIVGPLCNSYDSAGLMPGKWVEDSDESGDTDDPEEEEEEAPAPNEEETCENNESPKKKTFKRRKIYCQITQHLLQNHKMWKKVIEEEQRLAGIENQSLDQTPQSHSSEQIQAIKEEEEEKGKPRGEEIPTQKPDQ
Give bare numbers, in nM.

MOLECULE	UNITS_SYMBOL	IC50
CC(C)(C)N1CC(COc2ccc3nc4[nH]c(=O)[nH]c4cc3c2)OC1=O (stereo not shown)	nM	70

Provide the reported IC50 of each entry below, same order.
1. Cn1c(=O)[nH]c2nc3ccc(OCCCC(=O)O)cc3cc21
2. CN(C(=O)CCCOc1ccc2nc3nc(O)n(C)c3cc2c1)C1CCCCCC1
3. CN(C(=O)CCCCOc1ccc2nc3[nH]c(=O)[nH]c3cc2c1)C1CCCCC1

1: 600; 2: 30000; 3: 2
